- Target Or System: human α5β3γ2L GABAA receptor (Homo sapiens, UniProt P18507+P28472+P31644)
- Sequence (P31644 32-462): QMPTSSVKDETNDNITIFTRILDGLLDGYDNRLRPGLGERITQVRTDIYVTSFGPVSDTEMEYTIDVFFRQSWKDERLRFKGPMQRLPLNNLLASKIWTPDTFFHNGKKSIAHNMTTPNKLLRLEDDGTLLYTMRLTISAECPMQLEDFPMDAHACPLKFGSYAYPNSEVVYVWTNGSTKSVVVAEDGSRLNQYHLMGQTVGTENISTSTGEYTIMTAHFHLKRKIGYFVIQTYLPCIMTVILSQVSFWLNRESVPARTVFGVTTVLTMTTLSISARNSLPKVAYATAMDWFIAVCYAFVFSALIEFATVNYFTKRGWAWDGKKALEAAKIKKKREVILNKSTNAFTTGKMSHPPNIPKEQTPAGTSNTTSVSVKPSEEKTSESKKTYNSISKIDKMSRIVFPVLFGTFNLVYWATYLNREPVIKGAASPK
- Sequence (P28472 26-473): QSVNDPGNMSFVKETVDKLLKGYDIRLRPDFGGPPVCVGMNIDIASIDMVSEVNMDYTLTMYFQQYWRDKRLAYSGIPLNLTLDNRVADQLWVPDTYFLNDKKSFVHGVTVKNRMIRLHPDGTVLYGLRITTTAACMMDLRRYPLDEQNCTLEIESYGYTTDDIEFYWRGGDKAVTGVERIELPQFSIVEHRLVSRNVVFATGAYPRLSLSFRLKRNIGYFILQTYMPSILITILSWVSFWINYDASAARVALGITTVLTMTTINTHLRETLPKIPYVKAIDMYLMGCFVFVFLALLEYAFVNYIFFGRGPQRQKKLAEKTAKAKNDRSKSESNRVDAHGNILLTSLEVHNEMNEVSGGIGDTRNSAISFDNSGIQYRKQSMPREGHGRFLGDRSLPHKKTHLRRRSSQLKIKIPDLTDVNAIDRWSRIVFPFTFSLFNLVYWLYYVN
- Sequence (P18507 40-475): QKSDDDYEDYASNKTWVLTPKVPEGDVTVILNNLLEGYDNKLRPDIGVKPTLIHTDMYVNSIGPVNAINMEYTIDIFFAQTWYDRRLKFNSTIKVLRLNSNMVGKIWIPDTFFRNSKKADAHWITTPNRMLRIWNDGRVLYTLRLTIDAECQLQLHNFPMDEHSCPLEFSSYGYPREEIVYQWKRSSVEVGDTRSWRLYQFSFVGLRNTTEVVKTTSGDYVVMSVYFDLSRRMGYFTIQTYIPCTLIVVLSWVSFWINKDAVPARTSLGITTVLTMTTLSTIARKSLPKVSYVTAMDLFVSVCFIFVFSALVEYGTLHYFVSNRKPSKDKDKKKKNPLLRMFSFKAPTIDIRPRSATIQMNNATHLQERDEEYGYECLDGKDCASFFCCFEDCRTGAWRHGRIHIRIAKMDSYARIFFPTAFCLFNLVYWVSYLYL
- Experiment Summary: Patch-clamp (Dynaflow) of GABA-mediated current at α5β3γ2L GABAA receptor
- Assay Context: α5β3γ2L; 30-1000 nM THDOC 20 s preincubation, 0.3 μM GABA 6 s; read-out: EC50 for effect on GABA mediated current response
pEC50: −log10 of the molar value.
Property Label: pEC50

molecule="C[C@]12CC[C@@H](O)C[C@@H]1CC[C@@H]1[C@@H]2CC[C@]2(C)[C@@H](C(=O)CO)CC[C@@H]12 [THDOC, 3α, 21-dihydroxy-5α-pregnan-20-one]" observed_value=7.17

Reference for the values: patent US20260158043A1
